Assay: Half life in Beagle dog at 3 mg/kg, iv measured upto 24 hrs
Format: ADME, organism-based, Canis lupus familiaris
Conditions: in vivo
REPORTED ENDPOINT: half-life (h)

> print(dat)
                               given.smiles  assay.result
1  CCOP(=O)(Cn1ccc(NC(=O)c2cc(Oc3cnc(C(=O)N4CCC4)cn3)cc(OC(C)C)c2)n1)OCC           1.8

###

Target: Hexokinase-4 (Homo sapiens, UniProt P35557)
Sequence (P35557 whole entry): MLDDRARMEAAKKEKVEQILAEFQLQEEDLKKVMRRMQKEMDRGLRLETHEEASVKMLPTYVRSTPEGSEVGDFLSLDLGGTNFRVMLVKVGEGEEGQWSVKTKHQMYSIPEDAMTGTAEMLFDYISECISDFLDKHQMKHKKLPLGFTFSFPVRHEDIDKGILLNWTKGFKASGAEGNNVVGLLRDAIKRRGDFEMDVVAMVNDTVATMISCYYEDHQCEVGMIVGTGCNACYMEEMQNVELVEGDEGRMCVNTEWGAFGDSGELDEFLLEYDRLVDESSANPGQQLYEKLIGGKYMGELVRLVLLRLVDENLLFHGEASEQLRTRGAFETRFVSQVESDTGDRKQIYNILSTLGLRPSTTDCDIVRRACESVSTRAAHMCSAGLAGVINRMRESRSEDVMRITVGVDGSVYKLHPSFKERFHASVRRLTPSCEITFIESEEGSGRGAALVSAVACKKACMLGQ
Test: Activation of recombinant full length human liver glucokinase expressed in Escherichia coli incubated for 10 mins by plate reader analysis
List of EC50 values.
REPORTED ENDPOINT: EC50 (nM)

> print(dat)
                               given.smiles  assay.result
1  CCOP(=O)(Cn1ccc(NC(=O)c2cc(Oc3ccc(S(=O)(=O)N4CCC4)cc3)cc(OC(C)C)c2)n1)OCC            67
2  CCOP(=O)(Cn1ccc(NC(=O)c2cc(Oc3ccc(S(C)(=O)=O)cc3)cc(OC(CF)CF)c2)n1)OCC            76
3  CCOP(=O)(Cn1ccc(NC(=O)c2cc(Oc3cnc(S(C)(=O)=O)nc3)cc(OC(C)C)c2)n1)OCC           234
4  CCOP(=O)(Cn1ncc(NC(=O)c2cc(Oc3ccc(S(C)(=O)=O)cc3)cc(O[C@@H](C)COC)c2)n1)OCC            49
5  CCOP(=O)(Cn1ccc(NC(=O)c2cc(Oc3cnc(C(=O)NC)cn3)cc(OC(C)C)c2)n1)OCC           193
6  CCOP(=O)(Cn1ccc(NC(=O)c2cc(Oc3cnc(C(=O)N4CCC4)nc3)cc(OC(C)C)c2)n1)OCC            61
7  CCOP(=O)(Cn1ccc(NC(=O)c2cc(Oc3ccc(S(C)(=O)=O)cc3)cc(O[C@@H](CC)CO)c2)n1)OCC            98
8  CCOP(=O)(Cn1ccc(NC(=O)c2cc(Oc3cnc(C(=O)N(C)C)cn3)cc(OC(C)C)c2)n1)OCC           148
